Data origin: patent US6756360B1

protocol: Glucose lowering and hepatic and plasma drug levels after intraperitoneal administration to normal fasted rats
Assay type: in vivo, Sprague-Dawley rats
measurement setup: Sprague-Dawley, rat, plasma, ip, one hour post injection, read-out: Plasma con.
observed property: concentration at 1 h (µM)

>>> measured("CCc1cc(F)c(N)c2nc(-c3ccc(P(=O)(O)O)o3)n(CC(C)C)c12")
79.2

====

tested system: rat liver FBPase (Rattus norvegicus)
Sequence (P19112 2-363 limits assumed): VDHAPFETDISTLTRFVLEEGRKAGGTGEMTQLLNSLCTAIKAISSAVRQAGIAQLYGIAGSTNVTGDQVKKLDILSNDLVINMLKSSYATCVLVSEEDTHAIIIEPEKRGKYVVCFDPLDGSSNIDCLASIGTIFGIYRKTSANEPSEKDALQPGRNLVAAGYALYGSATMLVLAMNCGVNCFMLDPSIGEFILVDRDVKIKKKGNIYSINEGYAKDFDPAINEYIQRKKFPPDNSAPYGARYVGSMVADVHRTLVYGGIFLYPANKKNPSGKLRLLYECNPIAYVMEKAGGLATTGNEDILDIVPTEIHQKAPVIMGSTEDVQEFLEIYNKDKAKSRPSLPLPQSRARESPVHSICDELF
pIC50: −log10 of the molar value.
observed property: pIC50

>>> measured("CCc1cc(F)c(N)c2nc(-c3ccc(P(=O)(O)O)o3)n(CC(C)C)c12 [Compound E]")
6.40

====

Test system: Rat Hepatocytes
protocol: Inhibition of gluconeogenesis in rat hepatocytes
Format: cell-based, Sprague-Dawley rats
measurement setup: Hepatocyte; glucose from 10 mM lactate, 1 mM pyruvate in rat hepatocytes, 1 hour
observed property: IC50 (µM)

>>> measured("CCc1cc(F)c(N)c2nc(-c3ccc(P(=O)(O)O)o3)n(CC(C)C)c12 [Compound E]")
2.5

====

tested system: human liver FBPase (Homo sapiens, UniProt P09467)
Sequence (P09467 2-338 limits assumed): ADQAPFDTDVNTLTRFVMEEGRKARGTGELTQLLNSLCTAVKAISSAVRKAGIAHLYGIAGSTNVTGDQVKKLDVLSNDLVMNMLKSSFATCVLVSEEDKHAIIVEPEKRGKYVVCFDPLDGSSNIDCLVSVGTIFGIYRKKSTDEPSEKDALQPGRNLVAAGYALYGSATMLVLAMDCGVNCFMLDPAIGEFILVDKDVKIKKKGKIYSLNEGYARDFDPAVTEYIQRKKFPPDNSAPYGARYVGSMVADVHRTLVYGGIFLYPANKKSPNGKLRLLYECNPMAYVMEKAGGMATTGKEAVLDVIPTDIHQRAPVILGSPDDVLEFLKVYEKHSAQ
protocol: Inhibition of human liver FBPase
pIC50: −log10 of the molar value.
observed property: pIC50

>>> measured("Cc1c(C)c2c(c(C)c1O)CCC(C)(COc1ccc(CC3SC(=O)NC3=O)cc1)O2 (stereo not shown) [Troglitazone]")
"< 4.00"
